System: mPTP
test details: mPTP activity (Ca2+ retention) assay in isolated rat liver mitochondria
Format: biochemical
measurement parameters: isolated rat liver mitochondria; average value from multiple experiments (n ≥ 2)
reported endpoint: mPTP Rat liver pIC50
No unit in the answer, only the number.

Example entries begin here.
{"compound": "COc1cc(C)c(NC(=O)/C=C/c2cc3[nH]nc(F)c3cc2F)c(C)n1 [Example 97]", "reported endpoint": "mPTP Rat liver pIC50", "observed measurement": 7.5}
{"compound": "CO[C@H]1Cc2ccccc2[C@@H]1NC(=O)/C=C/c1ccc2c(C#N)n[nH]c2c1 [Example 74]", "reported endpoint": "mPTP Rat liver pIC50", "observed measurement": 8.0}
{"compound": "Cc1n[nH]c2cc(/C=C/C(=O)N[C@H]3c4ccccc4C[C@@H]3OCC3COC3)ccc12 [Example 66]", "reported endpoint": "mPTP Rat liver pIC50", "observed measurement": 7.2}

Sure, the documented mPTP Rat liver pIC50 for Cc1cc(NC(=O)/C=C/c2ccc3c(C)n[nH]c3c2)ccc1F [Example 41] is 7.1

Sure, the documented mPTP Rat liver pIC50 for Cc1c(F)cccc1NC(=O)/C=C/c1ccc2nn[nH]c2c1 [Example 1] is 7.3

Numbers sourced from patent US20250179028A1.
